From: the SangsterLogP compilation

assay: method code SF-AS, from DOI: 10.1021/jf00106a008; details: pH 7.3
Sorting guide: entries reporting logD beneath 0.3 go in the rule met pile, the rest go in the rule not met pile.

Incoming: Lab log: compare recorded logD with 0.3; is it strictly lower for CCCOn1c(=O)[nH]c(C)c(SC#N)c1=O ?
Outgoing: rule met

Incoming: Lab log: compare recorded logD with 0.3; is it strictly lower for CCC(C)On1c(=O)[nH]c(C)c(Br)c1=O (stereo not drawn) ?
Outgoing: rule not met

Incoming: Lab log: compare recorded logD with 0.3; is it strictly lower for CCCCCOn1c(=O)[nH]c(C)c(Br)c1=O ?
Outgoing: rule not met

Incoming: Lab log: compare recorded logD with 0.3; is it strictly lower for CCCCOn1c(=O)[nH]c(C)c(Br)c1=O ?
Outgoing: rule not met

Incoming: Lab log: compare recorded logD with 0.3; is it strictly lower for CCCCCCOn1c(=O)[nH]c(C)c(Br)c1=O ?
Outgoing: rule not met

Incoming: Lab log: compare recorded logD with 0.3; is it strictly lower for C=CCOn1c(=O)[nH]c(C)c(Br)c1=O ?
Outgoing: rule not met

Incoming: Lab log: compare recorded logD with 0.3; is it strictly lower for CCCOn1c(=O)[nH]c(CCC)c(Br)c1=O ?
Outgoing: rule not met

Incoming: Lab log: compare recorded logD with 0.3; is it strictly lower for CCCCCCCCOn1c(=O)[nH]c(C)c(Br)c1=O ?
Outgoing: rule not met

Incoming: Lab log: compare recorded logD with 0.3; is it strictly lower for CCCOn1c(=O)[nH]c(C)c(Br)c1=O ?
Outgoing: rule not met

Incoming: Lab log: compare recorded logD with 0.3; is it strictly lower for COn1c(=O)[nH]c(C)c(Br)c1=O ?
Outgoing: rule met

Incoming: Lab log: compare recorded logD with 0.3; is it strictly lower for Cc1[nH]c(=O)n(OC(C)C)c(=O)c1Br ?
Outgoing: rule not met
